Recorded Kd values for a group of binders are listed next.
TARGET_OF_ASSAY: T1, Cyno CD47 ECD protein, His-tagged, monomer (cyno)
T1 construct: extracellular domain; also called cynomolgus CD47
RUN_DESCRIPTION: ProteOn SPR; mAb captured, ECD monomer as analyte

BINDER: C47B230 (antibody, V domains shown, human IgG2sigma/kappa) VH: EVQLVQSGAEVKKPGESLKISCKGSGYSFTDDWIGWVRQMPGKGLEWMGIIYPGDSDTRYSPSFQGQVTISADKSISTAYLQWSSLKASDTAVYYCARVGRFASHQLDYWGQGTLVTVSS VL: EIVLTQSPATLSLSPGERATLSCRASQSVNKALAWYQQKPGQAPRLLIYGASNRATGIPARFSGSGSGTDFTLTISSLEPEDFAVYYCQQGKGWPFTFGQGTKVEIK
Kd [nM]: 7.28

BINDER: C47B217 (antibody, V domains shown, human IgG2sigma/kappa) VH: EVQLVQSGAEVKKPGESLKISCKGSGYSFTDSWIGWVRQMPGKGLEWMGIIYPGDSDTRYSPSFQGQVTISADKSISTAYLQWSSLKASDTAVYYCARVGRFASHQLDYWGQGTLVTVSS VL: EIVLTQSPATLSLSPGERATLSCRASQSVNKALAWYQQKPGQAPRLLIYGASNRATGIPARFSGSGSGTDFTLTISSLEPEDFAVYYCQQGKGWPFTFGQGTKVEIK
Kd [nM]: 5.56

BINDER: C47B224 (antibody, V domains shown, human IgG2sigma/kappa) VH: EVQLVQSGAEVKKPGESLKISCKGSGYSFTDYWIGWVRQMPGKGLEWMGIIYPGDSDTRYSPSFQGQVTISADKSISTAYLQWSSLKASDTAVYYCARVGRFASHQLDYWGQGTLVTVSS VL: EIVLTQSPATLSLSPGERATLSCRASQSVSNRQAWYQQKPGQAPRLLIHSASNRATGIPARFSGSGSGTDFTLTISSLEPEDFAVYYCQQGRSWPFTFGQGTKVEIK
Kd [nM]: 2.19
